# protein stability index per entry
B1: GMCL1 (parent)
chain: RPDTGDDAAGHGFCYCAGSHKRKR

Variants of: B1
Test: protein stability index of a GFP-peptide fusion (GPS, HEK-293T) (PSI 1-6); higher = more stable;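 also: lentivirally expressed fusions sorted by FACS into six bins by GFP to DsRed ratio, PSI derived from sequencing read proportions per bin multiplied by bin number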
Settings: c terminus: a fixed tail appended
reported-endpoint: protein stability index

1. RLDTGDDAAGHGFCYCAGSHKRKR [P2L] :: 2.77
2. RPDTGDDAAGHGFCYVAGSHKRKR [C16V] :: 4.72
3. RPDTGDDAAGHGFYYCAGSHKRKR [C14Y] :: 4.88
4. RPDTGDDAAGHGFCYCAGSHKRER [K23E] :: 2.94
5. RPDTLDDAAGHGFCYCAGSHKRKR [G5L] :: 3.1
6. RPDTGDDSAGHGFCYCAGSHKRKR [A8S] :: 3.72
7. RPDTGDIAAGHGFCYCAGSHKRKR [D7I] :: 3.08
8. RPFTGDDAAGHGFCYCAGSHKRKR [D3F] :: 2.76
9. RPDTGDDAAGHGFCYCAGSHKYKR [R22Y] :: 2.01
10. RPDTGDDAAGHGFCYCAGSHKRKY [R24Y] :: 3.75
11. RPDTGDDAAGHGFCYGAGSHKRKR [C16G] :: 4.85
12. RPDTGADAAGHGFCYCAGSHKRKR [D6A] :: 3.21
13. RPDTGDDAAGHGFCYFAGSHKRKR [C16F] :: 4.72
14. RPDTGDDAAGHGFCYCAGSHKGKR [R22G] :: 2.43
15. RPDTSDDAAGHGFCYCAGSHKRKR [G5S] :: 3.5
16. IPDTGDDAAGHGFCYCAGSHKRKR [R1I] :: 2.34
17. RPATGDDAAGHGFCYCAGSHKRKR [D3A] :: 2.62
18. RPDTGDDAAFHGFCYCAGSHKRKR [G10F] :: 2.9
19. RPDTGDDAAGHGFCYCAGSHKRIR [K23I] :: 3.04
20. RPDEGDDAAGHGFCYCAGSHKRKR [T4E] :: 3.16
21. RPDTGDDAAGHGFCYTAGSHKRKR [C16T] :: 4.74
22. RPDTGDWAAGHGFCYCAGSHKRKR [D7W] :: 2.2
23. RPDTMDDAAGHGFCYCAGSHKRKR [G5M] :: 2.84

Recorded values, source the supplement of paper PMC10567573.
